Where these numbers come from: patent US11999727B2

- System: HAP1 MTAP-deleted cell line
- experimentNotes: Viability assay, MTAP-deleted cell line
- Type: cell-based
- runParameters: Homo sapiens, HAP1, viability IC50, MTAP-deleted cell line; read-out: HAP1 MTAP deleted viability
pIC50: −log10 of the molar value.
measuredMetric: pIC50

# compound, measuredMetric, observedMeasurement
data = [
    ("Cc1cc(NC(=O)C(=O)N2C[C@H](C)CC[C@H]2C2CC3(CCC3)C2)cnc1N (racemic) [Compound 692]", "pIC50", "< 5.00"),
    ("CC(=O)Nc1ccc([C@@H]2CC[C@@H](C)CN2C(=O)C(=O)Nc2cncc(C(N)=O)c2)s1 (single isomer, unassigned) [Compound 704]", "pIC50", "< 5.00"),
    ("C[C@@H]1CC[C@H](c2cc(F)cc(Cl)c2)N(C(=O)C(=O)Nc2cncc(C(N)=O)c2)C1 (single isomer, unassigned) [Compound 625]", "pIC50", "< 5.00"),
    ("Cc1cc(NC(=O)C(=O)N2C[C@H](C)CC[C@H]2c2ccc(N)cn2)cnc1N (racemic) [Compound 658]", "pIC50", "< 5.00"),
    ("Cc1ncc(NC(=O)C(=O)N2C[C@H](C)CC[C@H]2c2ccc3c(c2)CCC(=O)N3)cc1Cl (racemic) [Compound 639]", "pIC50", "5.00 to 6.00"),
    ("COc1ncc(NC(=O)C(=O)N2C[C@H](C)CC[C@H]2c2ccc3sccc3c2)cc1C(N)=O (relative stereo) [Compound 633]", "pIC50", "< 5.00"),
    ("COc1cc([C@@H]2CC[C@@H](C)CN2C(=O)C(=O)Nc2cncc(C(N)=O)c2)ccn1 (single isomer, unassigned) [Compound 532]", "pIC50", "> 6.00"),
    ("C[C@H]1CN(C(=O)C(=O)Nc2cncc(C(N)=O)c2)[C@H](c2ccc(F)c(F)c2)CC1(F)F (single isomer, unassigned) [Compound 683]", "pIC50", "5.00 to 6.00"),
]

* * *

# Lookup of reported IC50 keyed by entry
- targetEntity: PRMT5 (Homo sapiens, UniProt O14744)
- Construct: purchased Viva (custom protein)
- Sequence (O14744 whole entry): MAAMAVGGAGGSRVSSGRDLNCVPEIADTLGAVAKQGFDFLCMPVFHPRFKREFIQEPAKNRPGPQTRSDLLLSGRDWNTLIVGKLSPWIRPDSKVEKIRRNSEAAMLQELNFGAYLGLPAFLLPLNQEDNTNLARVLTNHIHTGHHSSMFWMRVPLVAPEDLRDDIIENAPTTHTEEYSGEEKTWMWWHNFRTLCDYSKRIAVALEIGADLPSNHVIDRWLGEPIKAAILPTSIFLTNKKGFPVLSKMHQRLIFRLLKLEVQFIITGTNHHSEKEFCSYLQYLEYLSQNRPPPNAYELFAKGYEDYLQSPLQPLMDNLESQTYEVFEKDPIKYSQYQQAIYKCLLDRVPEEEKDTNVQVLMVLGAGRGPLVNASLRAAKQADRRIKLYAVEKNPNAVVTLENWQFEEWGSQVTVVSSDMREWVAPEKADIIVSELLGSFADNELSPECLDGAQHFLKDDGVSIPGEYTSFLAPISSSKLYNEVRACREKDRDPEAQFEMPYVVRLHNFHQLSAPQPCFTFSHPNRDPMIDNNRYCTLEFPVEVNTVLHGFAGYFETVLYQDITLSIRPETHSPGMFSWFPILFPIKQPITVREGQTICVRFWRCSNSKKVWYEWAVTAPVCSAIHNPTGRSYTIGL
- Sequence (Q9BQA1 whole entry partner): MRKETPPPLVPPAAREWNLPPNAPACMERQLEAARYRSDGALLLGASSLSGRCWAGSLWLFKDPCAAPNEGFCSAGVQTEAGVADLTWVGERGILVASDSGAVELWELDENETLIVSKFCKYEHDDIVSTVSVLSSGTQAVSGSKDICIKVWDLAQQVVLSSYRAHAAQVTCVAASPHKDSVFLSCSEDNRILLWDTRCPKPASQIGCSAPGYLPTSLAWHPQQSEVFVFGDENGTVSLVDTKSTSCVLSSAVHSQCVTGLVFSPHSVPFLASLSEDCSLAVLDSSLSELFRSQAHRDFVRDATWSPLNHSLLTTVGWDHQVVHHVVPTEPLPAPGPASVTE
- experimentNotes: PRMT5 biochemical IC50 assay with MTA as cofactor
- runParameters: PRMT5, MTA as cofactor; read-out: MTA IC50
measuredMetric: IC50

# compound, observedMeasurement
data = [
    ("Cc1cc(NC(=O)C(=O)N2C[C@H](C)CC[C@H]2c2ccc(-c3cncs3)cc2)cnc1N (single isomer, unassigned)", "> 500 nM"),
    ("Cc1cc(NC(=O)C(=O)N2C[C@H](C)CC[C@H]2c2cccc(Br)c2)cnc1N (racemic)", "50 to 500 nM"),
    ("C[C@@H]1CC[C@@H](c2cccs2)N(C(=O)C(=O)Nc2cncc(C(N)=O)c2)C1 (racemic) [Compound 99]", "< 50 nM"),
    ("Cc1cc(NC(=O)C(=O)N2C[C@H](C)CC[C@H]2c2ccc3[nH]ncc3c2)cnc1C (single isomer, unassigned)", "> 500 nM"),
    ("Cc1c(NC(=O)C(=O)N2[C@@H](C)CCC[C@H]2c2ccccc2)cnc(N)c1C (single isomer, unassigned)", "< 50 nM"),
    ("C[C@@H]1CC[C@@H](c2ccc(N3CCCC3)nc2)N(C(=O)C(=O)Nc2cncc(C(N)=O)c2)C1 (racemic)", "50 to 500 nM"),
]

* * *

The following molecules are shown together with reported pIC50 values.
- targetEntity: PRMT5 (Homo sapiens)
- Construct: purchased Viva (custom protein)
- experimentNotes: PRMT5 biochemical IC50 assay with MTA as cofactor
- runParameters: PRMT5, MTA as cofactor; read-out: MTA IC50
pIC50: −log10 of the molar value.
measuredMetric: pIC50

# molecule, measuredMetric, observedMeasurement
records = [
    ("C[C@@H]1CC[C@@H](c2ccccc2F)N(C(=O)C(=O)Nc2cncc(C(N)=O)c2)C1 (racemic)", "pIC50", "6.30 to 7.30"),
    ("C[C@H]1CC[C@H](c2ccc(O)nc2)N(C(=O)C(=O)Nc2cncc(C(N)=O)c2)C1 (single isomer, unassigned)", "pIC50", "> 7.30"),
    ("C[C@H]1CC[C@H](c2ccc3sc(C4CCN(C)CC4)nc3c2)N(C(=O)C(=O)Nc2cnc(N)c(C(F)(F)F)c2)C1", "pIC50", "> 7.30"),
    ("Cc1cc(NC(=O)C(=O)N2C[C@H](C)CC[C@H]2C2CCCN(C)C2)cnc1N (mixture of isomers)", "pIC50", "6.30 to 7.30"),
    ("Cc1ccc([C@@H]2CC[C@H](C)CN2C(=O)C(=O)Nc2cncc(C(N)=O)c2)nc1 (racemic)", "pIC50", "6.30 to 7.30"),
    ("Cc1cc(NC(=O)C(=O)N2C[C@H](C)CC[C@H]2c2ccc(NS(C)(=O)=O)cc2)cnc1C (single isomer, unassigned)", "pIC50", "< 6.30"),
    ("CC(=O)N1CCC(c2cccc(C3CCCCN3C(=O)C(=O)Nc3cncc(C)c3)c2)CC1 (centres unmarked) [Compound 7]", "pIC50", "6.30 to 7.30"),
    ("Cc1cc(NC(=O)C(=O)N2CC3(CCC2c2ccc(F)cc2)CC3)cnc1N (centres unmarked)", "pIC50", "> 7.30"),
    ("C[C@@H]1CC[C@@H](c2ccc(CC3CC3)cc2)N(C(=O)C(=O)Nc2cncc(C(N)=O)c2)C1 (racemic)", "pIC50", "> 7.30"),
    ("Cc1cc(NC(=O)C(=O)N2C[C@@H](C)CC[C@@H]2c2ccc3[nH]ncc3c2)cnc1C (single isomer, unassigned)", "pIC50", "> 7.30"),
    ("CCc1cc(NC(=O)C(=O)N2C[C@@H](C)CC[C@@H]2c2ccc(N3CCN(C(C)C)CC3)c(C)c2)cnc1N (racemic)", "pIC50", "> 7.30"),
    ("NC(=O)c1cncc(NC(=O)C(=O)N2CC3CCC(C3)C2c2ccccc2)c1 (racemic)", "pIC50", "6.30 to 7.30"),
    ("CCc1cc(NC(=O)C(=O)N2C[C@H](C)CC[C@H]2c2ccc3c(c2)C(=O)NC3)cnc1N (single isomer, unassigned)", "pIC50", "< 6.30"),
    ("CCc1cc(NC(=O)C(=O)N2C[C@@H](C)CC[C@@H]2c2cccc(OCC3CCN(C)CC3)c2)cnc1N", "pIC50", "> 7.30"),
]

* * *

- targetEntity: PRMT5 (Homo sapiens, UniProt O14744)
- Construct: purchased Viva (custom protein)
- experimentNotes: PRMT5 biochemical IC50 assay with SAM as cofactor
- runParameters: PRMT5, SAM as cofactor; read-out: SAM IC50

# compound, IC50
rows = [
    ("CC(=O)Oc1ccc([C@H]2CC[C@H](C)CN2C(=O)C(=O)Nc2cnc(N)c(C)c2)cc1 (single isomer, unassigned)", "> 500 nM"),
    ("Cc1cc(NC(=O)C(=O)N2[C@@H](C)CCC[C@H]2c2ccccc2)cnc1N (racemic) [Compound 112]", "50 to 500 nM"),
    ("Cc1cc(NC(=O)C(=O)N2CCCC[C@@H]2c2cccc(N(C)C)c2)cnc1N (single isomer, unassigned)", "50 to 500 nM"),
    ("CC(=O)Nc1ccc([C@@H]2CC[C@@H](C)CN2C(=O)C(=O)Nc2cncc(C(N)=O)c2)cn1 (single isomer, unassigned)", "50 to 500 nM"),
    ("CCc1ccc([C@@H]2CC[C@@H](C)CN2C(=O)C(=O)Nc2cnc(N)c(C)c2)cn1 (single isomer, unassigned)", "50 to 500 nM"),
    ("C[C@H]1CC[C@H](c2cccc(C(F)(F)F)c2)N(C(=O)C(=O)Nc2cncc(C(N)=O)c2)C1 (single isomer, unassigned)", "50 to 500 nM"),
]

* * *

Each entry below carries its recorded pIC50.
- targetEntity: PRMT5 (Homo sapiens, UniProt O14744)
- Construct: purchased Viva (custom protein)
- experimentNotes: PRMT5 biochemical IC50 assay with no cofactor
- runParameters: PRMT5, no cofactor; read-out: No Cofactor/rel IC50
pIC50: −log10 of the molar value.

# molecule, pIC50
records = [
    ("Cc1cc(NC(=O)C(=O)N2C[C@H](C)CC[C@H]2c2cc3cn[nH]c3s2)cnc1N (racemic) [Compound 815]", "6.30 to 7.30"),
    ("Cc1cc(NC(=O)C(=O)N2C[C@H](C)CC[C@H]2c2ccc3c(c2)CCC(=O)N3)cnc1C(F)F (racemic)", "6.30 to 7.30"),
    ("CCc1cc(NC(=O)C(=O)N2[C@@H](C)CCC[C@H]2c2ccc3sc(C4CCN(C)CC4)nc3c2)cnc1N (single isomer, unassigned)", "> 7.30"),
    ("Cc1cc(NC(=O)C(=O)N2C[C@H](C)CC[C@H]2C2CCN(C)CC2)cnc1N (racemic)", "< 6.30"),
    ("C[C@@H]1CC[C@@H](c2cccc(N(C)C)c2)N(C(=O)C(=O)Nc2cncc(C(N)=O)c2)C1 (single isomer, unassigned)", "6.30 to 7.30"),
    ("NC(=O)c1cncc(NC(=O)C(=O)N2C[C@@H]3CC[C@@H](C3)[C@@H]2c2ccccc2)c1 (single isomer, unassigned)", "< 6.30"),
    ("C[C@@H]1CC[C@@H](c2cccc(F)c2)N(C(=O)C(=O)Nc2cncc(C(N)=O)c2)C1 (racemic)", "6.30 to 7.30"),
    ("C[C@H]1CC[C@H](c2cc(Cl)cc(C(F)(F)F)c2)N(C(=O)C(=O)Nc2cncc(C(N)=O)c2)C1 (single isomer, unassigned)", "6.30 to 7.30"),
    ("Cc1cc(NC(=O)C(=O)N2C[C@H](C)CC[C@H]2[C@H]2CC3(C[C@H](C(N)=O)C3)C2)cnc1N (mixture of isomers)", "< 6.30"),
    ("CC(=O)NCc1ccc([C@@H]2CC[C@@H](C)CN2C(=O)C(=O)Nc2cnc(N)c(C)c2)cc1 (racemic)", "6.30 to 7.30"),
    ("C[C@@H]1C[C@@H](F)[C@@H](c2ccc(F)cc2)N(C(=O)C(=O)Nc2cncc(C(N)=O)c2)C1 (racemic)", "6.30 to 7.30"),
    ("NC(=O)c1cncc(NC(=O)C(=O)N2CCC3(CCCCC3)CC2)c1", "< 6.30"),
    ("COc1ncc(NC(=O)C(=O)N2C[C@@H](C)CC[C@@H]2c2ccc3c(c2)CCC(=O)N3)cc1C(N)=O (single isomer, unassigned)", "< 6.30"),
]
